Assay: protein stability index of a GFP-peptide fusion (yeast GPS) (PSI 1-4); higher = more stable; sorted into four equal gates, so the index is relative within each strain
Conditions: ubr1∆
Classification field: YES = protein stability index at or over 3; NO = protein stability index under 3.

[[record]]
primarysequence = "LRPLFTRYELYIKNILE [YLR335W/NUP2]"
classlabel = "NO"

[[record]]
primarysequence = "KFFMKHGLILELQKIWQ [SRB5]"
classlabel = "YES"

[[record]]
primarysequence = "FDPVYTTVITVFLEFSL [YML103C/NUP188]"
classlabel = "NO"

[[record]]
primarysequence = "ERAARVAAKIAALAGQQ [RPL5]"
classlabel = "YES"

[[record]]
primarysequence = "QLIDQFEWDISNSDNCP [SNF5]"
classlabel = "YES"

[[record]]
primarysequence = "REKYNMKGPAALWDVQF [ARP9]"
classlabel = "YES"

[[record]]
primarysequence = "ELSFYILYSFKLSGKLL [YML103C/NUP188]"
classlabel = "NO"

[[record]]
primarysequence = "GKQIKSTIYNWGDNKLA [YML103C/NUP188]"
classlabel = "NO"

[[record]]
primarysequence = "QDHFHRLNYLYQISAYQ [RPR2]"
classlabel = "NO"

[[record]]
primarysequence = "GIKKHSLWRRTVYSLSQ [YDL116W/NUP84]"
classlabel = "NO"

[[record]]
primarysequence = "IEWAEHHRDSNFPDEDD [SKP1]"
classlabel = "YES"

[[record]]
primarysequence = "GLVHDLCHPKKEKYGLA [SMC1]"
classlabel = "NO"

[[record]]
primarysequence = "YMDCLLYDLRASYAKIE [SNU114]"
classlabel = "NO"

[[record]]
primarysequence = "AELIGLQPIFKGEEAKL [SSN3]"
classlabel = "NO"

[[record]]
primarysequence = "ALIDTEFANFELKDICS [YML103C/NUP188]"
classlabel = "NO"

[[record]]
primarysequence = "TVASSKVGYTLPSHIIS [RPL4A]"
classlabel = "YES"

[[record]]
primarysequence = "VGCIFAELIGLQPIFKG [SSN3]"
classlabel = "NO"


* * *

Assay: protein stability index of a GFP-peptide fusion (yeast GPS) (PSI 1-4); higher = more stable; sorted into four equal gates, so the index is relative within each strain
Conditions: san1∆
measurementLabel: protein stability index

[[record]]
primarysequence = "DSFSVPNRLVKELQYDN [PRE2]"
measurementlabel = "protein stability index"
valueobserved = 3.09

[[record]]
primarysequence = "SGSTEKAFKICEAAVEI [SIR3]"
measurementlabel = "protein stability index"
valueobserved = 2.84

[[record]]
primarysequence = "MARGPKKHLKRLAAPHH [RPS4A]"
measurementlabel = "protein stability index"
valueobserved = 3.1

[[record]]
primarysequence = "AVTEREVLVTPGLEFLD [MCD1]"
measurementlabel = "protein stability index"
valueobserved = 2.75

[[record]]
primarysequence = "ESQYPIVTEQPSAEIRE [SWP82]"
measurementlabel = "protein stability index"
valueobserved = 2.57

[[record]]
primarysequence = "DNVSFIEEAKSIRRQDY [REC8]"
measurementlabel = "protein stability index"
valueobserved = 3.28

[[record]]
primarysequence = "KDLKHIIYYKFNKNLGK [PRP8]"
measurementlabel = "protein stability index"
valueobserved = 1.32

[[record]]
primarysequence = "LCLTEFENCYLEGNDIH [FAS1]"
measurementlabel = "protein stability index"
valueobserved = 3.2

[[record]]
primarysequence = "VPPMKLAYSKIVNGQTF [YMR129W/POM152]"
measurementlabel = "protein stability index"
valueobserved = 1.09

[[record]]
primarysequence = "DRTQDRADVEDESNDID [RPC37]"
measurementlabel = "protein stability index"
valueobserved = 3.13

[[record]]
primarysequence = "SSSPLAMSETLSKVSLL [PRE8]"
measurementlabel = "protein stability index"
valueobserved = 2.67

[[record]]
primarysequence = "LQQKQQQRFQALQQQQQ [SWI1]"
measurementlabel = "protein stability index"
valueobserved = 1.37

[[record]]
primarysequence = "LESYKTQAKKLYHHTTK [SRP72]"
measurementlabel = "protein stability index"
valueobserved = 2.02

[[record]]
primarysequence = "NNNDNNNSNTVASSTNF [SWI1]"
measurementlabel = "protein stability index"
valueobserved = 2.94

[[record]]
primarysequence = "HIRRMVPLAMGIVSVSD [RPN1]"
measurementlabel = "protein stability index"
valueobserved = 1.55

[[record]]
primarysequence = "DRTMLAPMDFAIVVGWR [FAS1]"
measurementlabel = "protein stability index"
valueobserved = 2.68

[[record]]
primarysequence = "TRKGYIPSSKYAYMMNS [YLR018C/POM34]"
measurementlabel = "protein stability index"
valueobserved = 2.98

[[record]]
primarysequence = "TGWHVDQAIVTETKRLV [DIB1]"
measurementlabel = "protein stability index"
valueobserved = 2.08

[[record]]
primarysequence = "TVTSLDVVYALKRQGRT [HHF1]"
measurementlabel = "protein stability index"
valueobserved = 3.18

[[record]]
primarysequence = "LPRCSKEEFRLMISPKD [RRI2]"
measurementlabel = "protein stability index"
valueobserved = 1.58

[[record]]
primarysequence = "NENETRDKVCKQINEAR [PGD1]"
measurementlabel = "protein stability index"
valueobserved = 3.28

[[record]]
primarysequence = "SLYQVDPSGSYFPWKAT [PRE8]"
measurementlabel = "protein stability index"
valueobserved = 2.65

[[record]]
primarysequence = "RLSNEMHALKNRSEQNG [RGR1]"
measurementlabel = "protein stability index"
valueobserved = 3.09

[[record]]
primarysequence = "IGSNGSGKSNFFAAIRF [SMC3]"
measurementlabel = "protein stability index"
valueobserved = 3.02

[[record]]
primarysequence = "ISRERDLFTHLWNQWLK [SRP68]"
measurementlabel = "protein stability index"
valueobserved = 2.99

[[record]]
primarysequence = "NENENFGYDIPLLDIVL [YML103C/NUP188]"
measurementlabel = "protein stability index"
valueobserved = 2.92

[[record]]
primarysequence = "ELGEFFVNGVATSFSRK [FAS2]"
measurementlabel = "protein stability index"
valueobserved = 2.63

[[record]]
primarysequence = "VDVQAPTDDKTLKPTFS [YOR098C/NUP1]"
measurementlabel = "protein stability index"
valueobserved = 3.16

[[record]]
primarysequence = "NPYNTRSNKIKVVKTPG [RPL34A]"
measurementlabel = "protein stability index"
valueobserved = 2.16

[[record]]
primarysequence = "KQERLKENEESLTPTQS [PRP28]"
measurementlabel = "protein stability index"
valueobserved = 3.22

[[record]]
primarysequence = "RYKPKSHLWEIDIPLDE [RPC37]"
measurementlabel = "protein stability index"
valueobserved = 3.03

[[record]]
primarysequence = "IDSVEVETNTTVLADEF [RPB3]"
measurementlabel = "protein stability index"
valueobserved = 3.09

[[record]]
primarysequence = "DYPSTSLDIRHDFIKGL [NUT1]"
measurementlabel = "protein stability index"
valueobserved = 3.14

[[record]]
primarysequence = "AEENLKKRIRLPSEERI [YIL149C/MLP2]"
measurementlabel = "protein stability index"
valueobserved = 2.61

[[record]]
primarysequence = "EVYGINEESTNERLEIN [SIR4]"
measurementlabel = "protein stability index"
valueobserved = 3.22

[[record]]
primarysequence = "YKAQADTFYMNVESVGS [RPB3]"
measurementlabel = "protein stability index"
valueobserved = 2.98

[[record]]
primarysequence = "NNHNDSNRLHPPDIHPN [GRR1]"
measurementlabel = "protein stability index"
valueobserved = 2.8

[[record]]
primarysequence = "AVAVVVDPIQSVKGKVV [RPN11]"
measurementlabel = "protein stability index"
valueobserved = 2.29

[[record]]
primarysequence = "QARMMQQQSADHDDSTD [NSL1]"
measurementlabel = "protein stability index"
valueobserved = 2.62

[[record]]
primarysequence = "RPKCGDCGSALQGISTL [RPL34A]"
measurementlabel = "protein stability index"
valueobserved = 1.32

[[record]]
primarysequence = "DLIRSESMLHLSIWIKN [IRR1]"
measurementlabel = "protein stability index"
valueobserved = 1.51

[[record]]
primarysequence = "LNVVLDDAMEINGEDPA [SMX2]"
measurementlabel = "protein stability index"
valueobserved = 3.46

[[record]]
primarysequence = "LNAKYQSLGLDDLQKFN [ISW2]"
measurementlabel = "protein stability index"
valueobserved = 2.74

[[record]]
primarysequence = "LGFEVKDQALIGTINSI [SIR2]"
measurementlabel = "protein stability index"
valueobserved = 2.27

[[record]]
primarysequence = "TIFSVMVEWLESRSFSP [PRP8]"
measurementlabel = "protein stability index"
valueobserved = 2.15

[[record]]
primarysequence = "LIQDLLHRLTPKNVKGE [RPN1]"
measurementlabel = "protein stability index"
valueobserved = 3.51


* * *

Assay: protein stability index of a GFP-peptide fusion (yeast GPS) (PSI 1-4); higher = more stable; sorted into four equal gates, so the index is relative within each strain
Details: doa10∆
measurementLabel: protein stability index

[[record]]
primarysequence = "KKSVLKQVQDFEENDHP [COR1]"
valueobserved = 2.85

[[record]]
primarysequence = "DHFIHLRNLHMKRMVAQ [SNF12]"
valueobserved = 2.78

[[record]]
primarysequence = "LSAVAQAESMKFKLLNG [RPS3]"
valueobserved = 3.06

[[record]]
primarysequence = "DMLTWVDSNLPDDEKFT [RPC40]"
valueobserved = 2.92

